# Measurement context: in cyclopentyl methyl ether, 350.15 K
Quantity: solubility (mole fraction)

# Compound structure, Reading
data = [
    ("CCC(CO)(CO)C(=O)O", 0.107),
]

---

# Measurement context: in gamma-butyrolactone, 328.15 K

# Compound structure, solubility (mole fraction)
data = [
    ("CCC(CO)(CO)C(=O)O", 0.212),
]

---

# Measurement context: in MIBK, 343.15 K

# Compound structure, solubility (mole fraction)
records = [
    ("CCC(CO)(CO)C(=O)O", 0.11),
]

---

# Measurement context: in gamma-butyrolactone, 298.15 K
Quantity: solubility (mole fraction)

# Compound structure, Reading
data = [
    ("CCC(CO)(CO)C(=O)O", 0.0688),
]
